Assay: folding enthalpy; higher = less favourable; fluorescence melt of hairpins on a sequencing array, two-state fit
Conditions: sodium 0.088 M
Tick fulfilled if folding enthalpy is -20 kcal/mol or greater. Tick not fulfilled if folding enthalpy is less than -20 kcal/mol.

As a guide, the following entries are already answered.
SEQUENCE STRING	LABEL CLASS
GTGTACACGAAAGTGCAC (((..(((....))))))	fulfilled
GCTCCGCGAAAGCTGCGC ((.(.((....)).).))	fulfilled
GGAAGAGGAAACTCTTTC (.(((((....))))).)	not fulfilled
GGTCCCGAAAGGGGTACC ((((((....)))..)))	fulfilled
GGAAGTACGAAAGTATCC (((..(((....))))))	fulfilled

Now consider a different sequence.
// inclusive: folding enthalpy at least -20 kcal/mol? input: GCCACCGAAAGGTTGGGC ((((((....)))..)))
not fulfilled

----------
Assay: folding enthalpy; higher = less favourable; fluorescence melt of hairpins on a sequencing array, two-state fit
Conditions: sodium 0.088 M
// classify(record): look up folding enthalpy in ranges lowest (below -30 kcal/mol), middle (-30 kcal/mol to below -20 kcal/mol), highest (-20 kcal/mol or more)

As a guide, the following entries are already answered.
SEQUENCE STRING	LABEL CLASS
GTTAAAACGAAAGTTAAC (((..(((....))))))	highest
GCTGCGTCGAAAGACAGC (((..(((....))))))	highest
GTCTGCGAAAGCACGAC ((((((....))).)))	middle
GATCCCAAGGGGATC ((((((...))))))	lowest
GTGACACGAAAGTGCCAC (((.(((....))).)))	lowest

In plain terms, what class is GTTTCACGAAAGTGTAAC (((.(((....))).))) ?
middle

In plain terms, what class is GTCCTCGAAAGAGGTGAC ((((((....)))..))) ?
highest

In plain terms, what class is GTGATGTCGAAAGACCAC (((..(((....)))))) ?
highest

In plain terms, what class is GCAGTAGGAAACTACTGC (((((((....))))))) ?
lowest

In plain terms, what class is CGAGCGGAAACGCGATCG ((((((....)))..))) ?
highest

In plain terms, what class is GGAGTACGAAAGTAGTCC (((.(((....))).))) ?
lowest

In plain terms, what class is GATCGGTTGGCCGATC ((((((....)))))) ?
lowest

In plain terms, what class is GTTATGGGAAACTATAAC (((((.(....).))))) ?
middle

In plain terms, what class is GATCCCCGCCGGGATC ((((((....)))))) ?
lowest

In plain terms, what class is GGTGAGCGAAAGCTTACC (((.(((....))).))) ?
middle

In plain terms, what class is GCAAGGCGAAAGCCAAGC ((..(((....)))..)) ?
highest

In plain terms, what class is GGCTTAGGAAACTAAACC ((.((((....)))).)) ?
highest

In plain terms, what class is GCAACGCGAAAGCTTTGC ((((.((....)).)))) ?
middle

----------
I'd appreciate it if you could supply Tm values for the items below.
Experiment: melting temperature; fluorescence melt of hairpins on a sequencing array, two-state fit, raised by 9.35 °C to match UV melts
Conditions: sodium 0.088 M
Answers are plain numbers, in °C.

SEQUENCE STRING	MEASURED QUANTITY	REPORTED RESULT
GACAGGGGAAACTCTGTC (((((.(....).)))))	Tm	48.1
GCTTAGCGAAAGCGACGC ((.(.((....)).).))	Tm	53.2
GGGGTCGAAAGACGACCC ((((((....)))..)))	Tm	61.8
GATTGGCCGAAAGGCATC (((..(((....))))))	Tm	28.5
GCGCGGCGAAAGCCATGC ((..(((....)))..))	Tm	53.3

For the 6 sequences below, give their Tm values.
1. GCCGGGCGAAAGCCACGC ((..(((....)))..))
2. GATCAGTTCACTGATC ((((((....))))))
3. GTTGTGGGAAACCACAGC (.(((((....))))).)
4. GCACTGCCGAAAGGCTGC (((..(((....))))))
5. GCCAGTTCGAAAGAAGGC (((..(((....))))))
6. CGCGGTCGGAAACGAGCG (((..(((....))))))

[50, 58.1, 49.7, 44.5, 37.1, 56.1]

For the 3 sequences below, give their Tm values.
1. GGTTGCGGAAACGTAGCC ((.(.((....)).).))
2. GATCGTGGACACGATC ((((((....))))))
3. GATCTAAGCATAGATC ((((((....))))))

[40.2, 65.6, 40.3]

For the 3 sequences below, give their Tm values.
1. GATCCTTGGAGGATC ((((((...))))))
2. GATCAGGTGCCTGATC ((((((....))))))
3. GGTCTCGAAAGAGAAACC ((((((....)))..)))

50.4
51.6
34.7

For the 5 sequences below, give their Tm values.
1. GTGCGAGGAAACTCGCGC (.(((((....))))).)
2. GCAACGGGAAACCGTCAC (..((((....))))..)
3. GCTGTCGAAAGACCGAGC ((((((....)))..)))
4. GGATGCGAAAGCAAGTCC ((((((....)))..)))
5. GCTAACGAAAGTTTAAGC ((((((....)))..)))

1. 66.2
2. 27.1
3. 37
4. 35.5
5. 35.5
